Test: Long-term accelerated stability tests
Assay type: physicochemical
Details: solid storage; 25 °C, 60% RH, 2M; read-out: Purity (%)
quantityKind: remaining at 1440 h (%)
Give the value, in units of %, as a plain number.

Recorded result, FC1(F)Oc2ccc(Nc3ccc4cccc(Cl)c4n3)cc2O1 [crystal form A] , remaining at 1440 h: 100

----------
Test: Influencing factors stability test (light exposure, high temperature, high humidity)
Format: physicochemical
Conditions: solid storage, 75% RH, 10 days; read-out: Purity%
quantityKind: remaining at 240 h (%)
Give the value, in units of %, as a plain number.

Recorded result, FC1(F)Oc2ccc(Nc3ccc4cccc(Cl)c4n3)cc2O1 [crystal form A] , remaining at 240 h: 100

The measurements presented in this section are drawn from patent EP4624469A1.
